These entries and their values trace back to paper PMC5540273.

- Tested on: IRAK3;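 also: KINOMEscan kinase panel screen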
- conditions-used: concentration: 1 μM, replicates: in singlicate; n = 1
measure: %Inh (%)
Express your answer in %, writing the number without its unit.

Lab note: need %Inh with IRAK3 for entry "CC(=O)Nc1cn2nc(Oc3cccc(NC(=O)c4cccc(C(F)(F)F)c4)c3)ccc2n1" , please look it up.
44

Next compound up: "O=C(Nc1n[nH]c2nc(-c3cccc(O)c3)ccc12)C1CC1"
0

Next compound up: "N#Cc1cnc2cc(-c3cnc(CNCCN4CCOCC4)s3)ccc2c1Nc1ccc(Oc2ccccc2)cc1"
0

Next compound up: "COc1cccc(CC(=O)N2CCc3cc(-c4cn(C)c5ncnc(N)c45)ccc32)c1"
14
